target-under-test: furin, P09958;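 note: purified furin at 1:10 enzyme:substrate in 50 mM HEPES pH 7.5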
Sequence (P09958 whole entry): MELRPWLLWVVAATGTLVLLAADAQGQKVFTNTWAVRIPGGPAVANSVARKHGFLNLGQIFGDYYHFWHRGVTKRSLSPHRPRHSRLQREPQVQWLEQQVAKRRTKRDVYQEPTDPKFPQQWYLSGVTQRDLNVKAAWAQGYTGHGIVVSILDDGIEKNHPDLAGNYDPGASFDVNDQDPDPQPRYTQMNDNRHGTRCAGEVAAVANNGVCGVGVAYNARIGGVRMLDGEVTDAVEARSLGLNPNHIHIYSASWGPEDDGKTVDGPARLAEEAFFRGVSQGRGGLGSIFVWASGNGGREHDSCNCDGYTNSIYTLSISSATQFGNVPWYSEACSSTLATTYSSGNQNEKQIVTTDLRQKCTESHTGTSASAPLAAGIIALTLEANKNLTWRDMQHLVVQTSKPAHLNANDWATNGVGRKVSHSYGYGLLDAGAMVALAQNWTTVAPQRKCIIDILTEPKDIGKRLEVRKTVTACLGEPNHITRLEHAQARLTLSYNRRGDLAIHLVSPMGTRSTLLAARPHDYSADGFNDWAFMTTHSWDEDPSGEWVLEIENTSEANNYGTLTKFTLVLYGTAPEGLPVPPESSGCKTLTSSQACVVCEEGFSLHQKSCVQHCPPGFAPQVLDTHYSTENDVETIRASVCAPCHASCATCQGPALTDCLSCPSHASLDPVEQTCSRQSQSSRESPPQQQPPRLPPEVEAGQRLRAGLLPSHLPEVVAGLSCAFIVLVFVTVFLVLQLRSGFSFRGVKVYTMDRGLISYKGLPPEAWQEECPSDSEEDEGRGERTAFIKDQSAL
assay-info: furin cleavage Z-score vs untreated control; higher = more cleavage, active = 3.5 or more, inactive = 1 or less, 8 variable residues between constant flanks
measurement-parameters: 7.5 min
Some of the results follow. The true hit rate is not given.
Classes used: active, inactive

[
  {
    "query-sequence": "CARQRRPHGGAGNASASA [FS-2765]",
    "label-class": "inactive"
  },
  {
    "query-sequence": "CAAQQRKKRAAGNASASA [FS-1306]",
    "label-class": "active"
  },
  {
    "query-sequence": "CARPLRDAGGAGNASASA [FS-2357]",
    "label-class": "inactive"
  },
  {
    "query-sequence": "CARHRRAAGGAGNASASA [FS-2144]",
    "label-class": "active"
  },
  {
    "query-sequence": "CARRRRAKRSAGNASASA [FS-1481]",
    "label-class": "active"
  },
  {
    "query-sequence": "CASKAHGIDPAGNASASA [HC795]",
    "label-class": "inactive"
  },
  {
    "query-sequence": "CARQKKTTGGAGNASASA [FS-3034]",
    "label-class": "inactive"
  },
  {
    "query-sequence": "CARIRRNAKGAGNASASA [FS-1723]",
    "label-class": "active"
  },
  {
    "query-sequence": "CARLRRFQKGAGNASASA [FS-2714]",
    "label-class": "inactive"
  },
  {
    "query-sequence": "CARPRRAKRFAGNASASA [FS-1069]",
    "label-class": "active"
  },
  {
    "query-sequence": "CARSGRGPFGAGNASASA [FS-1925]",
    "label-class": "inactive"
  },
  {
    "query-sequence": "CALTLRMRRYAGNASASA [FS-1032]",
    "label-class": "active"
  }
]
